- TESTED_SYSTEM: PPAR alpha (Homo sapiens)
- Sequence (Q07869 239-466 limits assumed): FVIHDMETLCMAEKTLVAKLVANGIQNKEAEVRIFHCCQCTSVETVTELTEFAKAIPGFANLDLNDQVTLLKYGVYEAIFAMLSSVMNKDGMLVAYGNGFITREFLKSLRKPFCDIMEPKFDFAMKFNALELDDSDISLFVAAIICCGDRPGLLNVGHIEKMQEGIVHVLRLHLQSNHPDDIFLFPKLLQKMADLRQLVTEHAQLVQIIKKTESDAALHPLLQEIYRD
- PROTOCOL_DESCRIPTION: Transient transfection (transactivation) assay in CV-1 cells, GAL4-PPAR chimera, luciferase reporter
pEC50: −log10 of the molar value.
Below is a list of entries, each paired with its recorded pEC50 value.

Before answering, review these 5 worked examples.
> print(dat)
                                   molecule  measured.value
1  CCC1CN(S(=O)(=O)c2ccc(C)c(CC(=O)O)c2)CCN1c1ccc(C(F)(F)F)cn1 (centres unmarked) [Example 94]    4.00 to 5.30
2  Cc1cc(CC(=O)O)cc(S(=O)(=O)N2[C@H](C)CN(c3ccc(C(F)(F)F)cn3)C[C@@H]2C)c1 [Example 229]          < 4.00
3  Cc1ccc(S(=O)(=O)N2CCN(c3ccc(C(C)(C)C)cc3)CC2)cc1CC(=O)O [Example 32]          > 5.30
4  Cc1ccc(S(=O)(=O)N2CCN(c3ncc(F)cn3)CC2)cc1CC(=O)O [Example 63]          < 4.00
5  CCc1ccc(N2CCN(S(=O)(=O)c3ccc(C)c(CC(=O)O)c3)CC2)cc1 [Example 30]    4.00 to 5.30

The molecule O=C(O)Cc1cc(Br)cc(S(=O)(=O)N2CCN(c3ccc(OC(F)(F)F)cc3)CC2)c1 [Example 201] showed pEC50 equal to 4.00 to 5.30

The molecule Cc1ccc(S(=O)(=O)N2CCCN(c3ccc(C(F)(F)F)cc3)CC2)cc1CC(=O)O [Example 5] showed pEC50 equal to < 4.00

The molecule Cc1cc(CC(=O)O)cc(S(=O)(=O)N2CCN(c3ccc(F)cc3F)CC2)c1 [Example 170] showed pEC50 equal to < 4.00

---

Below is a list of entries, each paired with its recorded EC50 value.
- TESTED_SYSTEM: PPAR alpha (Homo sapiens)
- PROTOCOL_DESCRIPTION: Transient transfection (transactivation) assay in CV-1 cells, GAL4-PPAR chimera, luciferase reporter

Before answering, review these 3 worked examples.
> print(dat)
                                   compound              tested.system  recorded.metric  measured.value
1  Cc1ccc(S(=O)(=O)N2CCCC(c3cccc(C(F)(F)F)c3)C2)cc1CC(=O)O (centres unmarked) [Example 16]  PPAR alpha (Homo sapiens)             EC50        > 100 µM
2  O=C(O)Cc1cccc(S(=O)(=O)N2CCN(CC3CCCCC3)CC2)c1 [Example 132]  PPAR alpha (Homo sapiens)             EC50        > 100 µM
3  Cc1cc(CC(=O)O)cc(S(=O)(=O)N2CCN(c3ccc(C(F)(F)F)cn3)CC2)c1 [Example 225]  PPAR alpha (Homo sapiens)             EC50     5 to 100 µM

The compound O=C(O)Cc1cccc(S(=O)(=O)N2CCN(c3ccc(C(F)(F)F)cc3[N+](=O)[O-])CC2)c1 [Example 128] showed EC50 equal to 5 to 100 µM

The compound Cc1ccc(S(=O)(=O)N2CCC(c3ccc(Cl)cc3)CC2)cc1CC(=O)O [Example 2] showed EC50 equal to > 100 µM

The compound Cc1cc(CC(=O)O)cc(S(=O)(=O)N2CCN(c3ccc(F)cc3)CC2)c1 [Example 173] showed EC50 equal to > 100 µM

The compound Cc1ccc(S(=O)(=O)N2CCN(c3ccc(C(F)(F)F)cn3)C(C)C2)cc1CC(=O)O (centres unmarked) [Example 23] showed EC50 equal to 5 to 100 µM

The compound Cc1ccc(S(=O)(=O)N2CCCN(c3nc4ccccc4s3)CC2)cc1CC(=O)O [Example 27] showed EC50 equal to > 100 µM
